MEASURED TARGET: BACE (recombinant human BACE catalytic domain, expressed in CHO cells as BACE-T-IgG, IgG1 removed with thrombin) (human) (UniProt P56817)
Sequence (P56817 43-460 limits assumed, form in doubt): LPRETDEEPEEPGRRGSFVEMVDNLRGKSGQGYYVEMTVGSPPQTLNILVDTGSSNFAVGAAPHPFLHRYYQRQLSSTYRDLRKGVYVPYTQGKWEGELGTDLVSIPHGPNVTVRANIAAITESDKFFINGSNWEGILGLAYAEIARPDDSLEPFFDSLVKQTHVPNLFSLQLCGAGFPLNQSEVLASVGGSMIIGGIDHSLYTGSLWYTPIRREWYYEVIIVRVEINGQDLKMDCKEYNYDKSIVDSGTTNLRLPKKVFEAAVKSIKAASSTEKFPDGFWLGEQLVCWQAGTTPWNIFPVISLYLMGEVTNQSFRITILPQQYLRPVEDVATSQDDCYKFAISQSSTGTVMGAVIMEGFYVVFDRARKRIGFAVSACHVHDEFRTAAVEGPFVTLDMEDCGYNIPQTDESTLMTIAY
TEST METHOD NOTES: fluorescence anisotropy competition against Molecule Y1 on BACE, pH 4.5; labelled 'Ka(nM)' on the sheet, it is the dissociation constant of the competing ligand; error 102.58; the text prints 1197 nM
READOUT NAME: Kd (nM)
Express the result in nM but write the number alone.

Which Kd value is on record for `Ac-YPYFIPL-NH2` ? 1200
